Subject of test: B-Raf (V600E) (SEQ. ID NO: 4) kinase (Homo sapiens (Human), UniProt P15056, V600E)
Sequence (P15056 416-766 V600E): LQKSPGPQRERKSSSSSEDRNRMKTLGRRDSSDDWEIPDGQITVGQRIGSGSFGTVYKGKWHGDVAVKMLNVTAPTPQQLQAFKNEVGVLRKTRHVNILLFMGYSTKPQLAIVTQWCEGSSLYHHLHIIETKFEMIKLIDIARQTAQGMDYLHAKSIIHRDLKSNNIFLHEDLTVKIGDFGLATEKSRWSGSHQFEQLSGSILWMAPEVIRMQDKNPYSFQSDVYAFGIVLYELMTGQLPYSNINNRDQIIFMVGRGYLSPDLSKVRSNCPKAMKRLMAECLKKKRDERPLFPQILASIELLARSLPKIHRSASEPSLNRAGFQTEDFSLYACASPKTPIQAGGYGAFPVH
Experimental details: Biochemical Assay for B-Raf (V600E) (1)
Measurement conditions: Table J, BRAF V600E, assay version (1); read-out: BRAF VE (1) IC50
pIC50: −log10 of the molar value.
Listed next: entries and their corresponding pIC50.

CC(=O)Nc1cc(-c2cc(-c3cc(NC(=O)c4ccnc(C(C)(C)C#N)c4)c(F)cc3C)cn(C)c2=O)ccn1 | ≥ 7.00
Cc1ncc(NC(=O)CC2CC(F)(F)C2)cc1-c1nccc(-c2ccnc(NC(=O)C3CC3)c2)n1 | ≥ 7.00
COC(=O)Nc1cc(-c2cc(-c3cc(NC(=O)c4ccnc(C(F)F)c4)cnc3C)ccn2)ccn1 | 5.00 to 6.00
CC(=O)Nc1cc(-c2cc(-c3cc(NC(=O)c4ccnc(C(F)(F)F)c4)c(F)cc3C)cc(=O)n2C)ccn1 | ≥ 7.00
CC(=O)Nc1cc(-c2cc(-c3cc(NC(=O)c4ccnc(C(C)(C)C#N)c4)c(F)cc3C)ccn2)ccn1 | ≥ 7.00

Measured pIC50 of CNC(=O)c1cc(-c2cnnc(-c3cc(NC(=O)c4ccnc(C5CC5)c4)cnc3C)c2)ccn1 : 5.00 to 6.00

// recorded pIC50 for CNC(=O)c1cc(-c2cncc(-c3cc(NC(=O)c4ccnc(C5(C#N)CC5)c4)ccc3C)n2)ccn1 : ≥ 7.00

Record CC(=O)Nc1cc(-c2nccc(-c3cc(NC(=O)c4ccnc(C(C)(C)C#N)c4)ccc3C)n2)ccn1 , field pIC50: ≥ 7.00

// pIC50 value for CNC(=O)c1cc(-c2cncc(-c3cc(NC(=O)c4cc(C(F)(F)F)ccn4)ccc3C)n2)ccn1 : ≥ 7.00

# pIC50 of Cc1cc(F)c(NC(=O)c2ccnc(C(C)(C)C#N)c2)cc1-c1cc(-c2ccnc(NC(=O)C3CC3)c2)cnn1 = ≥ 7.00

Reported pIC50 ( CNC(=O)c1cc(-c2cncc(-c3cc(NC(=O)c4ccnc(C(C)(C)C#N)c4)c(F)cc3C)n2)ccn1 ) = ≥ 7.00

Field pIC50 (entry COC(=O)Nc1cc(-c2cccc(-c3cc(NC(=O)c4ccnc(C(C)(C)C#N)c4)cnc3C)c2)ncn1 ) reads ≥ 7.00

So, CNC(=O)c1cc(-c2cnnc(-c3cc(NC(=O)c4cn(C(C)(C)C)nn4)ccc3C)c2)ccn1 ? Its pIC50 was 6.30 to 7.00

GET /value?item= COc1cc(C(=O)Nc2ccc(C)c(-c3cncc(-c4ccnc(NC(C)=O)c4)n3)c2)ccc1F &field=pIC50 returns ≥ 7.00

The measured pIC50 associated with CC(=O)Nc1cc(-c2cc(-c3cc(NC(=O)c4ccnc(C)c4)ccc3C)ncn2)ccn1 reads ≥ 7.00

Memo: CC(=O)Nc1cc(-c2cc(-c3cc(NC(=O)c4ccnc(C(F)(F)F)c4)ccc3C)nn(C)c2=O)ccn1 , reported pIC50: 5.00 to 6.00
